Data origin, for the record: the domain aggregation screens of Martell et al. (2025)

# method.summary: soluble fraction after stress (log2 fold change); higher = more stays soluble; pooled small domains, quantitative proteomics
# condition.parameters: stress: 50 degC
quantity.measured: soluble fraction (log2)
Field format: numeric only.

// solved cases for soluble fraction (log2) follow
Query: Give the measured soluble fraction (log2) of "HMSGDYRALYSSLPPERASSVVDALNVAGIPYRIQDSTGAIMVPAEQIYDARIRLAGQGLGK" .
Reply: 0.227

Query: Give the measured soluble fraction (log2) of "HMRTLKDSTEYLIRSMLLRGEMKVGEIYSANALAKELNISNSPVREAMMSLVDRGLLENVRNRGFRVV" .
Reply: -1.44

Query: Give the measured soluble fraction (log2) of "HMFGIEIPEEAGKLQDYTLTDDDLEGGNTLKEIQFPQGARVVIIRRDDKFIIPDGSVELQSGDQLLIIYGE" .
Reply: -0.578

Query: Give the measured soluble fraction (log2) of "HMNAVYAEERRAYILAALEKRGTVHSYELAEQMGVSRETIRRDIMELSNRGLLVKTHGGAIST" .
Reply: -0.686

Query: Give the measured soluble fraction (log2) of "HMDEDTWKLYKRAYKKYYARYMKGNMSEAAFKAWGEQAAADRDAAIEQLRATTDAALSASIIQQLKEKLNR" .
Reply: -0.581

---
Query: Give the measured soluble fraction (log2) of "HMNLAPLLTEYVQINFRRASEMKTYLEQANLISERGFLLADDQTNILMVRETGASIEEIRRTLNRF" .
Reply: -1.77

Query: Give the measured soluble fraction (log2) of "HMADLKVGFVHRAGSVLERELDDVLEALEMYRSALAIDPSHKPSLDALTRISQLADYREQAAEILEPLPR" .
Reply: -0.576

Query: Give the measured soluble fraction (log2) of "HMEAEPRLLDLPPGTRAGRLDKVLAQLLPEHSRSRLQGWIERGGVLVNGKEASVRQVVGPGDQLTVWEEAA" .
Reply: -0.0918

Query: Give the measured soluble fraction (log2) of "HMVVGYRYVTNVANAVNFRQKPSASSTIITTIPYGTRIGYVEDANSEYARVKYDNMYGYVAKFYLSNYSPP" .
Reply: -3.27
